Test system: HIV-1LAI M164I/4XAZT
Assay: p24 reduction assay in MT-2 cells, M164I/4XAZT
Format: cell-based
Test conditions: Human immunodeficiency virus 1, MT2; Table 8; M164I/4XAZT; read-out: AZT EC50
Measurement label: pEC50
Bear in mind: pEC50 is minus log10 of a mol/L concentration; give just that figure.

Memo: Cc1cn([C@H]2C[C@H](N=[N+]=[N-])[C@@H](CO)O2)c(=O)[nH]c1=O [AZT, 3′-Azido-3′-deoxythymidine] , reported pEC50: 7.37

====

Test system: HIV-1LAI selected with MB-PFA, passage 15
Assay: Susceptibility of virus selected in vitro with MB-PFA
Assay type: cell-based
Test conditions: Table 6; MB-PFA-selected virus, passage 15 (V75L, M164I, L214F)
Protocol: Antiviral Susceptibility Assays. The antiviral activity of each compound was determined by inoculating MT-2 cells with HIV-1LAI at a multiplicity of infection (MOI) of 0.01 TCID50/cell, followed by incubation in the presence of three-fold serial drug dilutions (3 wells per dilution) (see Mellors, et. al., Antimicrob. Agents Chemother. 39:1087-1092). […] The fold-resistance of a test virus is calculated by dividing the IC50 of the test virus by the IC50 of the HIV-1LAI control virus. […]
Measurement label: pEC50
Bear in mind: pEC50 is minus log10 of a mol/L concentration; give just that figure.

Memo: CCCCCCCCCCCCCCCCCCOC[C@H](COP(=O)(O)C(=O)O)OC , reported pEC50: 5.67

====

System: HIV-1LAI L74V
Assay: p24 reduction assay in MT-2 cells, L74V
Assay type: cell-based
Test conditions: Human immunodeficiency virus 1, MT2, Table 1; L74V; MOI 0.01
Measurement label: pEC50
Bear in mind: pEC50 is minus log10 of a mol/L concentration; give just that figure.

Memo: O=C(O)P(=O)(O)O [PFA, phosphonoformate, reference compound] , reported pEC50: 4.43

====

Test system: HIV-1LAI 4XAZT (D67N, K70R, T215Y, K219Q)
Assay: p24 reduction assay in MT-2 cells, 4XAZT
Assay type: cell-based
Test conditions: Table 7; 4XAZT relative to wild type virus
Measurement label: Fold-resistance

Answered examples (3):
Compound: CCCCCCCCCCCCCCCCCCOC[C@H](COP(=O)(O)C(=O)O)OCC
Fold-resistance: 0.24 (0.5)
//
Compound: O=C(O)P(=O)(O)O [PFA, phosphonoformate, reference compound]
Fold-resistance: 8.07 (0.7)
//
Compound: CCCCCCCCCCCCCCCCCCOC[C@H](COP(=O)(O)C(=O)O)OC
Fold-resistance: 0.22 (1.2)

Now turn to the next compound.
Memo: CCCCCCCCCCCCCCCCCCOC[C@@H](O)COP(=O)(O)C(=O)O , reported Fold-resistance: 0.63 (0.8)

====

System: HIV-1LAI (wild type, control)
Assay: p24 reduction assay in MT-2 cells, wild type virus
Assay type: cell-based
Test conditions: Human immunodeficiency virus 1, MT2, Table 4; HIV-1LAI wild type; mean ± SD, two or three experiments; read-out: EC50
Measurement label: pEC50
Bear in mind: pEC50 is minus log10 of a mol/L concentration; give just that figure.

Memo: O=C(O)P(=O)(O)O [PFA, phosphonoformate, reference compound] , reported pEC50: 4.75
